# target-desc: T1, Human CD98 ECD with C-terminal His-tag (human, UniProt P08195 105-529)
# T1 construct: also called huCD98 ECD; recombinant human CD98 extracellular domain
# T1 sequence: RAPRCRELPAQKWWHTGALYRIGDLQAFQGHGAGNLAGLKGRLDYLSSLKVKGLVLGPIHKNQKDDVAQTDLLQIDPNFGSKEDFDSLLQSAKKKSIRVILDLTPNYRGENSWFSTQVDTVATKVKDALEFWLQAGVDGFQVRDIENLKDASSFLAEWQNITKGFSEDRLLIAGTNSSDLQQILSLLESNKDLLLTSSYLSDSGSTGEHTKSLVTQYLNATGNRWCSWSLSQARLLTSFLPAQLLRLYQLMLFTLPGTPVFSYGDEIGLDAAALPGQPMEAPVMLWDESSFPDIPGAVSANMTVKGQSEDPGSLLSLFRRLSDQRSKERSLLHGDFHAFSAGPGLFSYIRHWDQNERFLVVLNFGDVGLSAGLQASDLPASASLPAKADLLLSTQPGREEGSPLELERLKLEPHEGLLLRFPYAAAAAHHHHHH
# measurement-description: SPR Biacore, anti-Fc capture of mAb, CD98 ECD analyte
property-name: kon (M⁻¹ s⁻¹)
Note: unit M⁻¹ s⁻¹ is implicit; provide only the numeric part.

Problem: Look up kon: Anti-CD98 murine hybridoma antibody Ab1 (antibody, V domains shown) VH: EVKLVESGGGLVQPGGSLRLSCATSGFTFTDYYMSWVRQPPGKALEWLGFIRNPANVYTTEYSASVKGRFTISRDNSQSILYLQMNTLRAEDSATYYCARASYGNSEGWFAYWGQGTLVTVSA VL: DIVMSQSPSSLAVSVGEKVTMSCKSSQNLLYNNNQKNYLAWYQQKPGQSPKLLIYWASTRESGVPDRFTGSGSGTDFTLTISSVKAEDLAVYYCQQYYSYPRTFGGGTKLEIK
Solution: 85000

Problem: Look up kon: Anti-CD98 rat hybridoma antibody Ab10 (antibody, V domains shown) VH: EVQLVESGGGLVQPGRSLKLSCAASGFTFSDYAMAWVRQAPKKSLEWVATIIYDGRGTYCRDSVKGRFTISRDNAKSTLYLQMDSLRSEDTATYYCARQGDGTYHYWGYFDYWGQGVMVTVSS VL: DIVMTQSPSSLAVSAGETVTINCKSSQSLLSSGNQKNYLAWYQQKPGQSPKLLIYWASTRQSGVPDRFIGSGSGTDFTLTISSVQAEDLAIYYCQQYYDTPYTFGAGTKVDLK
Solution: 130000

Problem: Look up kon: Anti-CD98 rat hybridoma antibody Ab9 (antibody, V domains shown) VH: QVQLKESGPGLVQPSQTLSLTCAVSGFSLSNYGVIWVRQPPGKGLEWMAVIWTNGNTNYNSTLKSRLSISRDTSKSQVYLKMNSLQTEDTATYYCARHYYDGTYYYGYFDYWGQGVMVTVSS VL: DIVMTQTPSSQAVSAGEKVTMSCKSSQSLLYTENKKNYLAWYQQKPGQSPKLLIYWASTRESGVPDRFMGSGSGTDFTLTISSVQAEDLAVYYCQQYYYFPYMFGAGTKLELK
Solution: 130000
